subject_of_test: BRD4-BD1 (Homo sapiens, UniProt O60885)
experiment_description: Binding affinity to BRD4-BD1 (bromoKdELECT assay)
run_conditions: 11-point 3-fold dilution series
Entries and their Kd

// below: answered compounds
| compound | attribute_measured | recorded_value |
| --- | --- | --- |
| Cn1cc(-c2cc(C(C)(C)O)ccc2Oc2ccc(N3CC(CN4CC5CC4CN5c4ncc(C(=O)N[C@H]5C(C)(C)[C@H](Oc6ccc(C#N)c(Cl)c6)C5(C)C)cn4)C3)cc2)c2cc[nH]c2c1=O (some centres unmarked) [Compound I-228] | Kd | < 50 nM |
| Cn1cc(-c2ccccc2Oc2cccc(OCCN3CCN(c4ncc(C(=O)N[C@H]5C(C)(C)[C@H](Oc6ccc(C#N)c(Cl)c6)C5(C)C)cn4)CC3)c2)c2cc[nH]c2c1=O [Compound I-98] | Kd | > 2500 nM |
| Cn1cc(-c2cc(NS(=O)(=O)C3CC3)ccc2Oc2cccc(OCCOC3CCN(c4ncc(C(=O)N[C@H]5C(C)(C)[C@H](Oc6ccc(C#N)c(Cl)c6)C5(C)C)cn4)CC3)c2)c2cc[nH]c2c1=O [Compound I-48] | Kd | > 2500 nM |
| CN(c1ccc(Oc2cccc(N3CC(N4CCN(c5ncc(C(=O)N[C@H]6C(C)(C)[C@H](Oc7ccc(C#N)c(Cl)c7)C6(C)C)cn5)CC4)C3)c2)c(-c2cn(C)c(=O)c3[nH]ccc23)c1)S(=O)(=O)C1CC1 [Compound I-88] | Kd | 500 to 2500 nM |

Kindly consider the entry below.
Please look up its Kd: Cn1cc(-c2cc(C(C)(C)O)ccc2Oc2cccc(N3CC(OC4CCN(c5ncc(C(=O)N[C@H]6C(C)(C)[C@H](Oc7ccc(C#N)c(Cl)c7)C6(C)C)cn5)CC4)C3)c2F)c2cc[nH]c2c1=O [Compound I-190]
500 to 2500 nM

====

subject_of_test: BRD4-BD2 (Homo sapiens, UniProt O60885)
experiment_description: Binding affinity to BRD4-BD2 (bromoKdELECT assay)
run_conditions: 11-point 3-fold dilution series
attribute_measured: Kd

| molecule | subject_of_test | recorded_value |
| --- | --- | --- |
| CCS(=O)(=O)Nc1ccc(Oc2ccc(CCOC3CCN(c4ncc(C(=O)N[C@H]5C(C)(C)[C@H](Oc6ccc(C#N)c(Cl)c6)C5(C)C)cn4)CC3)cc2)c(-c2cn(C)c(=O)c3[nH]ccc23)c1 | BRD4-BD2 (Homo sapiens, UniProt O60885) | < 50 nM |

Item CCS(=O)(=O)c1ccc(Oc2cccc(OCCCC3CCN(c4ncc(C(=O)N[C@H]5C(C)(C)[C@H](Oc6ccc(C#N)c(Cl)c6)C5(C)C)cn4)CC3)c2F)c(-c2cn(C)c(=O)c3[nH]ccc23)c1 with BRD4-BD2 (Homo sapiens, UniProt O60885) - Kd?
> 2500 nM

Now give it for Cn1cc(-c2ccccc2Oc2cccc(OCCOC3CCN(c4ncc(C(=O)N[C@H]5C(C)(C)[C@H](Oc6ccc(C#N)c(Cl)c6)C5(C)C)cn4)CC3)c2)c2cc[nH]c2c1=O too.
> 2500 nM

Follow-up entry: Cn1cc(-c2cc(C(C)(C)O)ccc2Oc2cccc(OCCC3CCN(c4ncc(C(=O)N[C@H]5C(C)(C)[C@H](Oc6ccc(C#N)c(Cl)c6)C5(C)C)cn4)CC3)c2F)c2cc[nH]c2c1=O
500 to 2500 nM

Please answer likewise for CCS(=O)(=O)c1ccc(OC(CCCCN2CCN(c3ncc(C(=O)NC4C(C)(C)C(Oc5ccc(C#N)c(Cl)c5)C4(C)C)cn3)CC2)C2CC2)c(-c2cn(C)c(=O)c3[nH]ccc23)c1 (stereo not drawn)
< 50 nM

What about this molecule? CN(CCCc1ccc(Oc2ccc(C(C)(C)O)cc2-c2cn(C)c(=O)c3[nH]ccc23)cc1)c1ncc(C(=O)N[C@H]2C(C)(C)[C@H](Oc3ccc(C#N)c(Cl)c3)C2(C)C)cn1
50 to 500 nM

Entry CN(c1ccc(Oc2ccc(C(C)(C)O)cc2-c2cn(C)c(=O)c3[nH]ccc23)cc1)C1CCN(c2ncc(C(=O)N[C@H]3C(C)(C)[C@H](Oc4ccc(C#N)c(Cl)c4)C3(C)C)cn2)CC1 please
< 50 nM

Let us now turn to CCS(=O)(=O)Nc1ccc(Oc2cccc(OCCCN3CCN(CCCOC4CCN(c5ncc(C(=O)N[C@H]6C(C)(C)[C@H](Oc7ccc(C#N)c(Cl)c7)C6(C)C)cn5)CC4)CC3)c2)c(-c2cn(C)c(=O)c3[nH]ccc23)c1
< 50 nM

Please give the result for CCS(=O)(=O)Nc1ccc(OC(COCCOC2CCN(c3ncc(C(=O)N[C@H]4C(C)(C)[C@H](Oc5ccc(C#N)c(Cl)c5)C4(C)C)cn3)CC2)C2CC2)c(-c2cn(C)c(=O)c3[nH]ccc23)c1 (stereo partly drawn) too.
50 to 500 nM

====

What follows is a record of IC50 for progesterone receptor ligand binding domain (GST-tagged PR LBD) (Homo sapiens).

The examples below pair each entry with its known result.
| molecule | IC50 |
| --- | --- |
| CCS(=O)(=O)Nc1ccc(Oc2cccc(N3CC4(CN(CC5CCN(c6ncc(C(=O)N[C@H]7C(C)(C)[C@H](Oc8ccc(C#N)c(Cl)c8)C7(C)C)cn6)CC5)C4)C3)c2)c(-c2cn(C)c(=O)c3[nH]ccc23)c1 | 500 to 2500 nM |
| CC(C)N(CC1CCN(c2ncc(C(=O)N[C@H]3C(C)(C)[C@H](Oc4ccc(C#N)c(Cl)c4)C3(C)C)cn2)CC1)[C@H]1C[C@H](Oc2cccc(Oc3ccc(C(C)(C)O)cc3-c3cn(C)c(=O)c4[nH]ccc34)c2F)C1 | < 50 nM |
| Cn1cc(-c2cc(C(C)(C)O)ccc2Oc2ccc(CC3CCN(c4ncc(C(=O)N[C@H]5C(C)(C)[C@H](Oc6ccc(C#N)c(Cl)c6)C5(C)C)cn4)CC3)cc2)c2cc[nH]c2c1=O | > 2500 nM |
| CN(CC1CCN(c2ncc(C(=O)N[C@H]3C(C)(C)[C@H](Oc4ccc(C#N)c(Cl)c4)C3(C)C)cn2)CC1)C1(c2ccc(Oc3ccc(C(C)(C)O)cc3-c3cn(C)c(=O)c4[nH]ccc34)cc2)COC1 | 50 to 500 nM |
| CN(CCCCc1ccc(Oc2ccc(C(C)(C)O)cc2-c2cn(C)c(=O)c3[nH]ccc23)cc1)c1ncc(C(=O)N[C@H]2C(C)(C)[C@H](Oc3ccc(C#N)c(Cl)c3)C2(C)C)cn1 | 50 to 500 nM |
| Cn1cc(-c2cc(C(C)(C)O)ccc2Oc2ccc(N3CC(CC4CN(c5ncc(C(=O)N[C@H]6C(C)(C)[C@H](Oc7ccc(C#N)c(Cl)c7)C6(C)C)cn5)C4)C3)cc2)c2cc[nH]c2c1=O | 50 to 500 nM |
| Cn1cc(-c2cc(C(C)(C)O)ccc2Oc2cccc(OCCN3CCN(c4ncc5c(n4)CN([C@H]4C(C)(C)[C@H](Oc6ccc(C#N)c(Cl)c6)C4(C)C)C5=O)CC3)c2F)c2cc[nH]c2c1=O | < 50 nM |
| Cn1cc(-c2cc(C(C)(C)O)ccc2Oc2ccc(N3CC(CC4CCN(c5ncc(C(=O)N[C@H]6C(C)(C)[C@H](Oc7ccc(C#N)c(Cl)c7)C6(C)C)cn5)CC4)C3)cc2)c2cc[nH]c2c1=O | 500 to 2500 nM |

Fill in: IC50 of CCS(=O)(=O)Nc1ccc(Oc2cccc(OC3CC(C4CCN(c5ncc(C(=O)N[C@H]6C(C)(C)[C@H](Oc7ccc(C#N)c(Cl)c7)C6(C)C)cn5)CC4)C3)c2)c(-c2cn(C)c(=O)c3[nH]ccc23)c1 (stereo partly shown) is ___
> 2500 nM

What about this molecule? CC(C)N(C1CCN(c2ncc(C(=O)N[C@H]3C(C)(C)[C@H](Oc4ccc(C#N)c(Cl)c4)C3(C)C)cn2)CC1)C1CN(c2cccc(Oc3ccc(C(C)(C)O)cc3-c3cn(C)c(=O)c4[nH]ccc34)c2F)C1
50 to 500 nM

====

subject_of_test: UniProtKB P10275
Sequence (P10275 1-920): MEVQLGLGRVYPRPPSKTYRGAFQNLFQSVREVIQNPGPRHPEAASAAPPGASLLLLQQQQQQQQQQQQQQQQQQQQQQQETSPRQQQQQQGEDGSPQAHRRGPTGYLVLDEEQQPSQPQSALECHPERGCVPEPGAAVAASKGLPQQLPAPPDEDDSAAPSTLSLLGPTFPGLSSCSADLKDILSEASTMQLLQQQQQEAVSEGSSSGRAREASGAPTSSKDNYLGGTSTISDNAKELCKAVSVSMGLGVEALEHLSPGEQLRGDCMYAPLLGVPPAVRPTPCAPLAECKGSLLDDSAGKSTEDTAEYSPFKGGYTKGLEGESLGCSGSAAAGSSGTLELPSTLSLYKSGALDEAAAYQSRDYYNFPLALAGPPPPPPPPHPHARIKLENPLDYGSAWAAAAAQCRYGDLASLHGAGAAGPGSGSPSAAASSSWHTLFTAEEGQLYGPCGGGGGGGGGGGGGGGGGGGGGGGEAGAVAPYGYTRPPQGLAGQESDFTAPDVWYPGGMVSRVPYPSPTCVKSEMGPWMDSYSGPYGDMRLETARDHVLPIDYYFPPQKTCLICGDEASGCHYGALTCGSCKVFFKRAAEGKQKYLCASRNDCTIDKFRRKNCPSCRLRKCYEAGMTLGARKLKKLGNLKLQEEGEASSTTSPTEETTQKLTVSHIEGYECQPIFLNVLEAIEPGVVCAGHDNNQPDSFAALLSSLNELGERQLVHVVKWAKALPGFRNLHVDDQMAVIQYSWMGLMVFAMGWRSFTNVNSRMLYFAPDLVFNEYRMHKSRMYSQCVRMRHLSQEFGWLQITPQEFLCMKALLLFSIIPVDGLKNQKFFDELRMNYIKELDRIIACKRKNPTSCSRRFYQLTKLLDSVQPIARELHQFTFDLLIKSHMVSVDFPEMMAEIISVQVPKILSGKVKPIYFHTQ
pKi: −log10 of the molar value.
Listing of entries alongside the reported pKi.

| compound | subject_of_test | pKi |
| --- | --- | --- |
| Cn1cc(-c2cc(C(C)(C)O)ccc2Oc2ccc(CCC3CCN(c4ncc(C(=O)N[C@H]5C(C)(C)[C@H](Oc6ccc(C#N)c(Cl)c6)C5(C)C)cn4)CC3)cc2)c2cc[nH]c2c1=O [Compound I-203] | UniProtKB P10275 | 6.30 to 7.30 |
| Cn1cc(-c2ccccc2Oc2cccc(OCCN3CCN(c4ncc(C(=O)N[C@H]5C(C)(C)[C@H](Oc6ccc(C#N)c(Cl)c6)C5(C)C)cn4)CC3)c2)c2cc[nH]c2c1=O [Compound I-98] | UniProtKB P10275 | > 7.30 |
| Cn1cc(-c2cc(C(C)(C)O)ccc2Oc2cccc(OCCN3CCN(c4ncc(C(=O)N[C@H]5C(C)(C)[C@H](Oc6ccc(C#N)c(Cl)c6)C5(C)C)cn4)CC3)c2F)c2cc[nH]c2c1=O [Compound I-99] | UniProtKB P10275 | > 7.30 |

Kindly review the next compound as well.
Requested read-out: pKi. Entry: CCS(=O)(=O)Nc1ccc(Oc2cccc(OCCOC3CCN(c4cnc(C(=O)N[C@H]5C(C)(C)[C@H](Oc6ccc(C#N)c(Cl)c6)C5(C)C)nc4)CC3)c2)c(-c2cn(C)c(=O)c3[nH]ccc23)c1 [Compound I-73]
6.30 to 7.30
